tested.on: Serine/threonine-protein kinase MARK2 (Homo sapiens) (UniProt Q7KZI7)
Sequence (Q7KZI7 whole entry): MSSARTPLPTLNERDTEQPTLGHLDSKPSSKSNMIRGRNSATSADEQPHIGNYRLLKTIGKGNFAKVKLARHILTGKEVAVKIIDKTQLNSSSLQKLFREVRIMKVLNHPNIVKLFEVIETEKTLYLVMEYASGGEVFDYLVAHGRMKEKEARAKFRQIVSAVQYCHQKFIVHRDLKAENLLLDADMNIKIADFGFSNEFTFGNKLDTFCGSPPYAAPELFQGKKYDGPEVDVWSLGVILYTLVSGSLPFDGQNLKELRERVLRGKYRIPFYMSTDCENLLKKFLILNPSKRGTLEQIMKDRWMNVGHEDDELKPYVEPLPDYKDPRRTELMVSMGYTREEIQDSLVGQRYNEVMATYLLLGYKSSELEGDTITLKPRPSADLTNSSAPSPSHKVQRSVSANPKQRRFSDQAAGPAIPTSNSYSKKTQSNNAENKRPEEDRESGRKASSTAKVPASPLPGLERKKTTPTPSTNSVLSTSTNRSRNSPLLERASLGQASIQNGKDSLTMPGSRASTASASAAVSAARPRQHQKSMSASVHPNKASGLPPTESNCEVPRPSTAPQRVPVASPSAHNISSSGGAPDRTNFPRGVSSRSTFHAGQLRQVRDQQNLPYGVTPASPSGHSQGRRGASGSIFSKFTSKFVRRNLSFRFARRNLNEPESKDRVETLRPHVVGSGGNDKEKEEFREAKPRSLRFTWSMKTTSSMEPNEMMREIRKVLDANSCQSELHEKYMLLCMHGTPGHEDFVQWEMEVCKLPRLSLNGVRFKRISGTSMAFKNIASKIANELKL
condition.details: at 1 µM
Description: GSK_PKIS: PAR-1Balpha mean inhibition at 1 uM [Nanosyn]
readout.kind: inhibition (%)

input.smiles: NS(=O)(=O)c1ccc(N/N=C2\C(=O)Nc3ccc4ncccc4c32)cc1
readout.kind: inhibition
val: 35.3

input.smiles: CN1CCC(n2cnc(-c3ccc(F)cc3)c2-c2ccnc(N)n2)CC1
readout.kind: inhibition
val: -0.63

input.smiles: c1ccc(-c2nc3n(c2-c2ccc4c(c2)OCO4)CCC3)nc1
readout.kind: inhibition
val: 1.22

input.smiles: O=C(O[C@H]1CN[C@H](C#Cc2cc3ncnc(Nc4ccc(Cc5ccccc5)cc4)c3s2)C1)N1CCOCC1
readout.kind: inhibition
val: 0.4

input.smiles: Fc1ccc(-c2nn3ccccc3c2-c2ccncc2)cc1
readout.kind: inhibition
val: 0.53

input.smiles: CCc1nn2ncccc2c1-c1ccnc(NC2CC2)n1
readout.kind: inhibition
val: 1.56

input.smiles: Cc1cccc(Nc2ncc(-c3ccccc3)o2)c1
readout.kind: inhibition
val: 6.99

input.smiles: COC(=O)c1sc(-n2cnc3cc(OC)c(OC)cc32)cc1OCc1ccccc1C(F)(F)F
readout.kind: inhibition
val: 2.26

input.smiles: CCN(CC)S(=O)(=O)c1ccc(OC)c(Nc2ncc(-c3ccccc3)o2)c1
readout.kind: inhibition
val: 0.33

input.smiles: CN1CCC(n2cnc(-c3ccc(F)cc3)c2-c2ccnc(Nc3ccccc3)n2)CC1
readout.kind: inhibition
val: -0.33

input.smiles: FC(F)(F)c1cccc(-c2nn3ncccc3c2-c2ccnc(Nc3ccc4c(c3)OCCO4)n2)c1
readout.kind: inhibition
val: 1.86

input.smiles: O=C(Nc1n[nH]c2cc(-c3ccc(F)cc3)ccc12)C1CC1
readout.kind: inhibition
val: 2.24

input.smiles: COC(=O)Nc1nc2ccc(S(=O)(=O)c3ccc(NC(=O)Nc4cc(C(F)(F)F)ccc4F)cc3)cc2[nH]1
readout.kind: inhibition
val: 1.75

input.smiles: CCn1c(-c2nonc2N)nc2c(C#CC(C)(C)O)ncc(OC3CCNCC3)c21
readout.kind: inhibition
val: 62.2

input.smiles: COc1ccc(CNC(=O)c2ccc(-c3cc(-c4nnc(C)o4)ccc3C)cc2)cc1
readout.kind: inhibition
val: 0.82

input.smiles: CC(=O)Nc1cccc(C#Cc2cncnc2Nc2ccc(OCc3cccc(F)c3)c(Cl)c2)c1
readout.kind: inhibition
val: 0.33

input.smiles: COc1cccc(-c2c[nH]c3c(N/N=C/c4ccncc4)ncnc23)c1
readout.kind: inhibition
val: 5.48

input.smiles: CNC(=O)c1cncc(/C=C/c2ccccc2Cl)c1
readout.kind: inhibition
val: 0.58

input.smiles: O=S(=O)(CCNCc1ccc(-c2ccc3ncnc(Nc4ccc(OCc5cccc(F)c5)c(Cl)c4)c3c2)o1)c1ccccc1
readout.kind: inhibition
val: -0.14

input.smiles: Cc1ccc(O)cc1Nc1ccnc2cc(-c3ccccn3)ccc12
readout.kind: inhibition
val: 4.34

input.smiles: CCN1CCC(CC(=O)Nc2n[nH]c3nnc(-c4cccc(F)c4F)cc23)CC1
readout.kind: inhibition
val: 1.15

---

tested.on: Phosphatidylinositol 4-kinase beta (Homo sapiens)
condition.details: at 1 µM

input.smiles: COc1ccc(-c2nn3ncccc3c2-c2ccnc(Nc3ccc4c(c3)OCCO4)n2)cc1
inhibition (%): -1.12
//
input.smiles: CCn1cc(-c2ccnc3[nH]ccc23)c(-c2cccc(NC(=O)Nc3ccc(OCc4ccccc4)cc3)c2)n1
inhibition (%): -1.05
//
input.smiles: CCOc1ccc2c(-c3ccnc(Nc4cccc(C(F)(F)F)c4)n3)cnn2n1
inhibition (%): -0.91
//
input.smiles: N#Cc1c(NC(=O)c2ccc(F)cc2)sc2c1CCCC2
inhibition (%): 1.29
//
input.smiles: c1ccc(COc2ccc(Nc3ncnc4ccc(-c5ccco5)cc34)cc2)cc1
inhibition (%): -1.04
//
input.smiles: NS(=O)(=O)c1ccc(N/N=C2\C(=O)Nc3ccc4ncccc4c32)cc1
inhibition (%): 0.49
//
input.smiles: COc1cc(/C=N/Nc2ncnc3[nH]ncc23)ccc1O
inhibition (%): 30.9
//
input.smiles: Fc1ccc(-c2nn3ccccc3c2-c2ccncc2)cc1
inhibition (%): 1.37
//
input.smiles: Cc1cccc2c1NC(=O)/C2=N\Nc1ccc(S(N)(=O)=O)cc1
inhibition (%): -2.85
//
input.smiles: NS(=O)(=O)c1ccc(Nc2ncc(-c3ccccc3)o2)cc1
inhibition (%): 4.39
//
input.smiles: FC(F)(F)c1cccc(-c2nn3ncccc3c2-c2ccnc(Nc3ccc4c(c3)OCCO4)n2)c1
inhibition (%): 3.59
//
input.smiles: COc1ccc(-c2oc3ncnc(N)c3c2-c2ccc(NC(=O)Nc3cc(C(F)(F)F)ccc3F)cc2)cc1
inhibition (%): 5.84
//
input.smiles: Nc1ncc(-c2cccc(S(N)(=O)=O)c2)c2scc(-c3ccc(F)c(Cl)c3)c12
inhibition (%): 1.6
//
input.smiles: O=S(=O)(CCNCc1ccc(-c2ccc3ncnc(Nc4ccc(OCc5cccc(F)c5)c(Cl)c4)c3c2)o1)c1ccccc1
inhibition (%): -9.91
//
input.smiles: CN(C)CCOc1ccc(-c2nc(-c3ccncc3)c(-c3ccc4c(c3)CC/C4=N\O)[nH]2)cc1
inhibition (%): -2.78
//
input.smiles: COC(=O)Nc1nc2ccc(S(=O)(=O)c3ccc(NC(=O)Nc4cc(C(F)(F)F)ccc4F)cc3)cc2[nH]1
inhibition (%): 1.36
//
input.smiles: CC(C)COC(=O)c1ccc2c(c1)/C(=C/Nc1ccc(S(N)(=O)=O)cc1)C(=O)N2
inhibition (%): -2.78
//
input.smiles: CC(=O)Nc1cccc(C#Cc2cncnc2Nc2ccc(OCc3cccc(F)c3)c(Cl)c2)c1
inhibition (%): -1.07
//
input.smiles: Cc1cccc(Nc2ncc(-c3ccccc3)o2)c1
inhibition (%): 2.54
//
input.smiles: Nc1nc(-c2cccc(Cl)c2)c(-c2ccc3ncccc3n2)s1
inhibition (%): -3.79
